Values from patent US20260297085A1

molecular target: JAK2 kinase activity on STAT5 in TF1 cells (Homo sapiens); assay: pSTAT5 cell assay (MSD; TF1 cells, 30 ng/mL IL-3 stimulation); conditions: 30 ng/mL IL-3, 15 minutes
Sequence (O60674 whole entry): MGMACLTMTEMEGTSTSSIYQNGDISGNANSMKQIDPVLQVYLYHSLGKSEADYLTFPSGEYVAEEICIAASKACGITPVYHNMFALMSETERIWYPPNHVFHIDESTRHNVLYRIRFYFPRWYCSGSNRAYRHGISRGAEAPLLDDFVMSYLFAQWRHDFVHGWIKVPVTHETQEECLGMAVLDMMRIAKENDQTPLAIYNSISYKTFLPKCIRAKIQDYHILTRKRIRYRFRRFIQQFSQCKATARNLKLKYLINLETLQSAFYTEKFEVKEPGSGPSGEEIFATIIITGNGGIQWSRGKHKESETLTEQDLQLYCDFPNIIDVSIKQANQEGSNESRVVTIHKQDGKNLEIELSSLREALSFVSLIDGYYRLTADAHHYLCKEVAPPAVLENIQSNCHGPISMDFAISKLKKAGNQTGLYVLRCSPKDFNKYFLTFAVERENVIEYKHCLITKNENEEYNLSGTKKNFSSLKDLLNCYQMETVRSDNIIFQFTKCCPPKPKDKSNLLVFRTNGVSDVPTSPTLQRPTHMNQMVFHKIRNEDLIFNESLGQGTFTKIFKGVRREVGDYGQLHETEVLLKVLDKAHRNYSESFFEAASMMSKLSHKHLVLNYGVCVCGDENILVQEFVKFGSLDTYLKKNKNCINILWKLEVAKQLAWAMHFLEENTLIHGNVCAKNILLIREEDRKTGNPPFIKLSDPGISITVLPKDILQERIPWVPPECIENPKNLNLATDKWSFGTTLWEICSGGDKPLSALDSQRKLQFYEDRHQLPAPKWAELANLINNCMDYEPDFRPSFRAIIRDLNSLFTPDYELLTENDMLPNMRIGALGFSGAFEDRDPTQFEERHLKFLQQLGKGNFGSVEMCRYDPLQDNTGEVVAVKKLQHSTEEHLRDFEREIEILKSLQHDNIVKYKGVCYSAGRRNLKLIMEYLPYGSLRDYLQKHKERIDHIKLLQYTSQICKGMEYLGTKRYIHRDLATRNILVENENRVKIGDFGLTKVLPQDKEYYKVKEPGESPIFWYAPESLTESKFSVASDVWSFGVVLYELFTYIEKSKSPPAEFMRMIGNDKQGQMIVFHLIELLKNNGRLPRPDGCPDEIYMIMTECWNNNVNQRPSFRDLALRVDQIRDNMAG
Listed compounds paired with reported IC50

compound	IC50
Cc1c(-c2cc3c(N4C[C@@H](C)[C@@](C#N)(C5CC5)C4=O)ccnn3c2)cnn1C [Example 166]	> 10 µM
C[C@@H]1CN(c2ccnn3cc(-c4cnc5[nH]ncc5c4)cc23)C(=O)[C@]1(C#N)C1CC1 [Example 75]	> 10 µM
C[C@@H]1CN(c2nc(-c3cnn(C45CC(C4)C5)c3)cn3ncc(F)c23)C(=O)[C@]1(C#N)C1CC1 [Example 207]	1 to 5 µM
C[C@@H]1CN(c2nn(-c3cnn(C(F)F)c3)c3cnccc23)C(=O)[C@]1(C#N)C1CC1 [Example 276]	> 10 µM
C[C@@H]1CN(c2cc(-c3cnn(C(F)F)c3)cc3ncsc23)C(=O)[C@]1(C#N)C1CC1 [Example 349]	1 to 5 µM
C[C@@H]1CN(c2ccnc3cc(-c4cnn(C56CC(C5)C6)c4)oc23)C(=O)[C@]1(C#N)C1CC1 [Example 344]	1 to 5 µM
COC[C@@]1(C#N)CCN(c2ccnn3cc(-c4cnn(C)c4)cc23)C1=O (single isomer, unassigned) [Example 40]	> 10 µM
C[C@@H]1CN(c2cc(-c3cnn(C4COC4)c3)cc3ncsc23)C(=O)[C@]1(C#N)C1CC1 [Example 348]	0.1 to 1 µM
CO[C@H]1C[C@H](n2cc(-c3cc4ncsc4c(N4C[C@@H](C)[C@@](C#N)(C5CC5)C4=O)n3)cn2)C1 [Example 355]	< 0.1 µM

* * *

target: human JAK2 kinase domain (JH1) (Homo sapiens, UniProt O60674); construct: recombinantly generated catalytic kinase (also known as JH1) domain of human JAK1, JAK2, JAK3 and TYK2; test: JH1 biochemical assay for JAK2 (ADP-Glo kinase assay, recombinant JH1 catalytic domain, JAK3-974 peptide, 15 μM ATP); conditions: JAK2 JH1, ADP-Glo
Sequence (O60674 849-1124 limits assumed): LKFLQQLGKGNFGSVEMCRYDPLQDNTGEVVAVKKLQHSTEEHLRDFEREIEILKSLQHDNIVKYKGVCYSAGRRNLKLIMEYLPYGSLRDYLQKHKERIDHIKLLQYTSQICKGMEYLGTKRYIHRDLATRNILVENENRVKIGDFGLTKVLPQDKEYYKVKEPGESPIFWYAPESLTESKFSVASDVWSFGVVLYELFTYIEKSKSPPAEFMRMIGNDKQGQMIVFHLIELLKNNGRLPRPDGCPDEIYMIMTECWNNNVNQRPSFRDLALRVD
pIC50: −log10 of the molar value. Counter-ions that a name gives are not always drawn.
Listed molecules paired with reported pIC50

molecule	pIC50
C[C@@H]1CN(c2nc(-c3cccnc3OC(F)F)cn3nccc23)C(=O)[C@]1(C#N)C1CC1 [Example 256, trifluoroacetate]	5.30 to 6.00
COc1cc(-c2cn3nccc3c(N3C[C@@H](C)[C@@](C#N)(C4CC4)C3=O)n2)ccn1 [Example 231, trifluoroacetate]	< 5.00
C[C@@H]1CN(c2nc(-c3cnn([C@H]4C[C@@H](C#N)C4)c3)cn3ncc(F)c23)C(=O)[C@]1(C#N)C1CC1 [Example 292]	> 7.00
C[C@@H]1CN(c2ccnn3cc(-c4cnn(CC5(C#N)CC5)c4)cc23)C(=O)[C@]1(C#N)C1CC1 [Example 324]	> 7.00

* * *

molecular target: human JAK2 kinase domain (JH1) (Homo sapiens, UniProt O60674); construct: recombinantly generated catalytic kinase (also known as JH1) domain of human JAK1, JAK2, JAK3 and TYK2; test: JH1 biochemical assay for JAK2 (ADP-Glo kinase assay, recombinant JH1 catalytic domain, JAK3-974 peptide, 15 μM ATP); conditions: JH1 kinase domain, ADP-Glo
pIC50: −log10 of the molar value. Counter-ions that a name gives are not always drawn.

molecule	assayed-target	pIC50
C[C@@H]1CN(c2ccnn3cc(-c4cccnc4F)cc23)C(=O)[C@]1(C#N)C1CC1	human JAK2 kinase domain (JH1) (Homo sapiens, UniProt O60674)	6.00 to 7.00
C[C@@H]1CN(c2ccnn3cc(-c4cnn5c4CCCC5)cc23)C(=O)[C@]1(C#N)C1CC1	human JAK2 kinase domain (JH1) (Homo sapiens, UniProt O60674)	6.00 to 7.00
C[C@@H]1CN(c2ccnn3cc(-c4cnn(C5CCCCC5)c4)cc23)C(=O)[C@]1(C#N)C1CC1	human JAK2 kinase domain (JH1) (Homo sapiens, UniProt O60674)	> 7.00
Cn1cc(-c2cc3c(N4CC[C@](C#N)(C5CC5)C4=O)ccnn3c2)cn1	human JAK2 kinase domain (JH1) (Homo sapiens, UniProt O60674)	5.00 to 5.30
C[C@@H]1CN(c2ccnn3cc(-c4ccc5ncnn5c4)cc23)C(=O)[C@]1(C#N)C1CC1	human JAK2 kinase domain (JH1) (Homo sapiens, UniProt O60674)	6.00 to 7.00
C[C@@H]1CN(c2ccnn3cc(-c4ccc(CO)cn4)cc23)C(=O)[C@]1(C#N)C1CC1 [Example 150, trifluoroacetate]	human JAK2 kinase domain (JH1) (Homo sapiens, UniProt O60674)	6.00 to 7.00
C[C@@H]1CN(c2ccnn3cc(-c4cnc(N(C)C)nc4)cc23)C(=O)[C@]1(C#N)C1CC1	human JAK2 kinase domain (JH1) (Homo sapiens, UniProt O60674)	5.30 to 6.00
C[C@@H]1CN(c2ccnn3cc(-c4cncc(F)c4)cc23)C(=O)[C@]1(C#N)C1CC1	human JAK2 kinase domain (JH1) (Homo sapiens, UniProt O60674)	5.30 to 6.00
C[C@H]1CN(c2ccnn3cc(-c4cnn(C)c4)cc23)C(=O)[C@]1(C#N)C1CC1	human JAK2 kinase domain (JH1) (Homo sapiens, UniProt O60674)	5.30 to 6.00
C[C@@H]1CN(c2ccnc3[nH]c(-c4cnn(C)c4)nc23)C(=O)[C@]1(C#N)C1CC1	human JAK2 kinase domain (JH1) (Homo sapiens, UniProt O60674)	6.00 to 7.00
C[C@@H]1CN(c2ccnn3cc(-c4cncc(O)c4)cc23)C(=O)[C@]1(C#N)C1CC1	human JAK2 kinase domain (JH1) (Homo sapiens, UniProt O60674)	6.00 to 7.00
CC[C@H]1C[C@@](C#N)(C2CC2)C(=O)N1c1ccnn2cc(C3=NC(C)N=C3)cc12 (some centres unmarked)	human JAK2 kinase domain (JH1) (Homo sapiens, UniProt O60674)	< 5.00
C[C@@H]1CN(c2ccnn3cc(-c4cnn(-c5ccncc5)c4)cc23)C(=O)[C@]1(C#N)C1CC1	human JAK2 kinase domain (JH1) (Homo sapiens, UniProt O60674)	6.00 to 7.00
C[C@@H]1CN(c2ccnn3cc(-c4cnc(C(F)F)s4)cc23)C(=O)[C@]1(C#N)C1CC1 [Example 101, trifluoroacetate]	human JAK2 kinase domain (JH1) (Homo sapiens, UniProt O60674)	6.00 to 7.00
C[C@@H]1CN(c2ccnn3cc(-c4cn[nH]c4)cc23)C(=O)[C@]1(C#N)C1CC1 [Example 59, trifluoroacetate]	human JAK2 kinase domain (JH1) (Homo sapiens, UniProt O60674)	6.00 to 7.00
COc1cc(-c2cc3c(N4CC[C@@](C#N)(C5CC5)C4=O)ccnc3[nH]2)ccn1	human JAK2 kinase domain (JH1) (Homo sapiens, UniProt O60674)	> 7.00
Cn1cc(-c2cc3c(N4CC[C@@](C#N)(C5CCC5)C4=O)ccnn3c2)cn1 (single isomer, unassigned)	human JAK2 kinase domain (JH1) (Homo sapiens, UniProt O60674)	5.30 to 6.00
C[C@@H]1CN(c2ccnn3cc(-c4cnc5n4CCCC5)cc23)C(=O)[C@]1(C#N)C1CC1 [Example 100, trifluoroacetate]	human JAK2 kinase domain (JH1) (Homo sapiens, UniProt O60674)	5.30 to 6.00
C[C@@H]1CN(c2ccnn3cc(-c4ccc5cnn(C)c5c4)cc23)C(=O)[C@]1(C#N)C1CC1	human JAK2 kinase domain (JH1) (Homo sapiens, UniProt O60674)	6.00 to 7.00
C[C@@H]1CN(c2ccnn3cc(-c4cnn5c4CCC5)cc23)C(=O)[C@]1(C#N)C1CC1	human JAK2 kinase domain (JH1) (Homo sapiens, UniProt O60674)	6.00 to 7.00
C[C@H]1C[C@@](C#N)(C2CC2)C(=O)N1c1ccnn2cc(-c3cnn(C)c3)cc12	human JAK2 kinase domain (JH1) (Homo sapiens, UniProt O60674)	< 5.00
Cn1cc(-c2cc3c(N4CC[C@@](C#N)(C5COC5)C4=O)ccnn3c2)cn1 (single isomer, unassigned)	human JAK2 kinase domain (JH1) (Homo sapiens, UniProt O60674)	< 5.00
C[C@@H]1CN(c2ccnn3cc(-c4cccc5cncn45)cc23)C(=O)[C@]1(C#N)C1CC1 [Example 128, trifluoroacetate]	human JAK2 kinase domain (JH1) (Homo sapiens, UniProt O60674)	5.30 to 6.00

* * *

target: JAK1 kinase activity on STAT3 in TF1 cells (Homo sapiens); assay: pSTAT3 cell assay (MSD; TF1 cells, 30 ng/mL IL-6 stimulation); details: 30 ng/mL IL-6, 15 minutes
Sequence (P23458 whole entry): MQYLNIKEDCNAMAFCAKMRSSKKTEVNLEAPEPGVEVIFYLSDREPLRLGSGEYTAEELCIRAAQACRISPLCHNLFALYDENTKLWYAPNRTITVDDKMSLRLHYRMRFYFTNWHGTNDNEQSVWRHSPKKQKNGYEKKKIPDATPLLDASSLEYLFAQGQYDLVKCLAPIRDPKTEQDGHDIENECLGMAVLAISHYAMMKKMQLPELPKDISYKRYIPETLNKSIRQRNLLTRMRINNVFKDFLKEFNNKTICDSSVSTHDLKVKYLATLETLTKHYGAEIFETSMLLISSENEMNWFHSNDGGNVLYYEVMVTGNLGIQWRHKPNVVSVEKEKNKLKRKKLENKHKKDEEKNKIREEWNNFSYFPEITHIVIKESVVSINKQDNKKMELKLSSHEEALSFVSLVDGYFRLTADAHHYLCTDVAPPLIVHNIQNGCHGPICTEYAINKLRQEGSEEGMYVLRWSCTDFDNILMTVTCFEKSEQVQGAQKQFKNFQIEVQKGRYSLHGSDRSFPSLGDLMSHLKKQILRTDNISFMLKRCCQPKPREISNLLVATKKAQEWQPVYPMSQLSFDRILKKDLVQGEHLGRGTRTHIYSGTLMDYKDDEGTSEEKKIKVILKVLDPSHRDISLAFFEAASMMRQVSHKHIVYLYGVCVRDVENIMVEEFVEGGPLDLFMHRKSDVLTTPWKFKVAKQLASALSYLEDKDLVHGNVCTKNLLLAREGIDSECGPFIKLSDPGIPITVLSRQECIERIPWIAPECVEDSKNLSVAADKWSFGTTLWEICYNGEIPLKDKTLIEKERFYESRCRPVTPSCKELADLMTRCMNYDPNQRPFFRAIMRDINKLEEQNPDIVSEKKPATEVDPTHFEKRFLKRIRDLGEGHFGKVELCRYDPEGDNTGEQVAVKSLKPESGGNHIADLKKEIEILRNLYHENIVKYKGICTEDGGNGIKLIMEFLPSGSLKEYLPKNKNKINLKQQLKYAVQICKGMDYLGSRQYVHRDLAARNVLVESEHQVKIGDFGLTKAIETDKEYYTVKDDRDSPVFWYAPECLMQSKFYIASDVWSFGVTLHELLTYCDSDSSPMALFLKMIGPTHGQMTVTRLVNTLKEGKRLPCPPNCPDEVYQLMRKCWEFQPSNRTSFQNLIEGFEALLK
Counter-ions that a name gives are not always drawn.
property-label: IC50

compound	assayed-target	property-label	measured-result
C[C@@H]1CN(c2nc(-c3ccc4nccn4c3)cn3nccc23)C(=O)[C@]1(C#N)C1CC1 [Example 263, trifluoroacetate]	JAK1 kinase activity on STAT3 in TF1 cells (Homo sapiens)	IC50	< 100 nM
C[C@@H]1CN(c2nc(-c3cnn([C@H]4CCOC4)c3)cn3ncc(F)c23)C(=O)[C@]1(C#N)C1CC1	JAK1 kinase activity on STAT3 in TF1 cells (Homo sapiens)	IC50	1000 to 5000 nM
COc1ncccc1-c1cc2c(N3C[C@@H](C)[C@@](C#N)(C4CC4)C3=O)ccnn2c1	JAK1 kinase activity on STAT3 in TF1 cells (Homo sapiens)	IC50	> 10000 nM
[2H]C([2H])([2H])n1cc(-c2cc3c(N4C[C@@H](C)[C@@](C#N)(C5CC5)C4=O)ccnn3c2)cn1	JAK1 kinase activity on STAT3 in TF1 cells (Homo sapiens)	IC50	1000 to 5000 nM
C[C@@H]1CN(c2ccnn3c(F)c(-c4cnn(C)c4)cc23)C(=O)[C@]1(C#N)C1CC1	JAK1 kinase activity on STAT3 in TF1 cells (Homo sapiens)	IC50	> 10000 nM
C[C@@H]1CN(c2ccnn3cc(-c4cnn(C5CC6(COC6)C5)c4)cc23)C(=O)[C@]1(C#N)C1CC1	JAK1 kinase activity on STAT3 in TF1 cells (Homo sapiens)	IC50	100 to 1000 nM
C[C@@H]1CN(c2ncnc3[nH]c(-c4cnn(C)c4)cc23)C(=O)[C@]1(C#N)C1CC1	JAK1 kinase activity on STAT3 in TF1 cells (Homo sapiens)	IC50	> 10000 nM
CCn1cc(-c2cn3ncc(F)c3c(N3C[C@@H](C)[C@@](C#N)(C4CC4)C3=O)n2)cn1	JAK1 kinase activity on STAT3 in TF1 cells (Homo sapiens)	IC50	100 to 1000 nM
C[C@@H]1CN(c2ccnn3cc(-c4cccnc4F)cc23)C(=O)[C@]1(C#N)C1CC1	JAK1 kinase activity on STAT3 in TF1 cells (Homo sapiens)	IC50	5000 to 10000 nM
C[C@@H]1CN(c2ccnn3cc(-c4cnn([C@H]5C[C@@](F)(C#N)C5)c4)cc23)C(=O)[C@]1(C#N)C1CC1	JAK1 kinase activity on STAT3 in TF1 cells (Homo sapiens)	IC50	1000 to 5000 nM
C[C@@H]1CN(c2ccnc3[nH]c(-c4cnn(C)c4)nc23)C(=O)[C@]1(C#N)C1CC1	JAK1 kinase activity on STAT3 in TF1 cells (Homo sapiens)	IC50	1000 to 5000 nM
Cc1cn(-c2cc3c(N4C[C@@H](C)[C@@](C#N)(C5CC5)C4=O)ccnn3c2)cn1	JAK1 kinase activity on STAT3 in TF1 cells (Homo sapiens)	IC50	1000 to 5000 nM
C[C@@H]1CN(c2ccnn3cc(-c4cc5n(n4)CCO5)cc23)C(=O)[C@]1(C#N)C1CC1 [Example 110, trifluoroacetate]	JAK1 kinase activity on STAT3 in TF1 cells (Homo sapiens)	IC50	> 10000 nM
C[C@@H]1CN(c2ccnn3cc(-c4ccc5ncnn5c4)cc23)C(=O)[C@]1(C#N)C1CC1	JAK1 kinase activity on STAT3 in TF1 cells (Homo sapiens)	IC50	1000 to 5000 nM
C[C@@H]1CN(c2nc(-c3cnn(CC4(C#N)CC4)c3)cn3ncc(F)c23)C(=O)[C@]1(C#N)C1CC1	JAK1 kinase activity on STAT3 in TF1 cells (Homo sapiens)	IC50	100 to 1000 nM
CC(=O)Nc1cncc(-c2cc3c(N4C[C@@H](C)[C@@](C#N)(C5CC5)C4=O)ccnn3c2)c1	JAK1 kinase activity on STAT3 in TF1 cells (Homo sapiens)	IC50	5000 to 10000 nM
C[C@@H]1CN(c2ccnn3cc(-c4cnn(C5CC6(C5)CN(C)C6)c4)cc23)C(=O)[C@]1(C#N)C1CC1	JAK1 kinase activity on STAT3 in TF1 cells (Homo sapiens)	IC50	1000 to 5000 nM
Cc1ccc(-c2cn3nccc3c(N3C[C@@H](C)[C@@](C#N)(C4CC4)C3=O)n2)cn1 [Example 233, trifluoroacetate]	JAK1 kinase activity on STAT3 in TF1 cells (Homo sapiens)	IC50	1000 to 5000 nM
C[C@@H]1CN(c2ccnn3cc(-c4cnn([C@H]5C[C@@H](C#N)C5)c4)cc23)C(=O)[C@]1(C#N)C1CC1	JAK1 kinase activity on STAT3 in TF1 cells (Homo sapiens)	IC50	100 to 1000 nM
COC[C@@]1(C#N)CCN(c2ccnn3cc(-c4cnn(C)c4)cc23)C1=O (single isomer, unassigned)	JAK1 kinase activity on STAT3 in TF1 cells (Homo sapiens)	IC50	> 10000 nM
C[C@@H]1CN(c2nc(-c3cnn(C4CN(C)C4)c3)cc3ncsc23)C(=O)[C@]1(C#N)C1CC1	JAK1 kinase activity on STAT3 in TF1 cells (Homo sapiens)	IC50	100 to 1000 nM
